# tgt: GSK3α (Homo sapiens)
# Sequence (P49840 whole entry, species assumed): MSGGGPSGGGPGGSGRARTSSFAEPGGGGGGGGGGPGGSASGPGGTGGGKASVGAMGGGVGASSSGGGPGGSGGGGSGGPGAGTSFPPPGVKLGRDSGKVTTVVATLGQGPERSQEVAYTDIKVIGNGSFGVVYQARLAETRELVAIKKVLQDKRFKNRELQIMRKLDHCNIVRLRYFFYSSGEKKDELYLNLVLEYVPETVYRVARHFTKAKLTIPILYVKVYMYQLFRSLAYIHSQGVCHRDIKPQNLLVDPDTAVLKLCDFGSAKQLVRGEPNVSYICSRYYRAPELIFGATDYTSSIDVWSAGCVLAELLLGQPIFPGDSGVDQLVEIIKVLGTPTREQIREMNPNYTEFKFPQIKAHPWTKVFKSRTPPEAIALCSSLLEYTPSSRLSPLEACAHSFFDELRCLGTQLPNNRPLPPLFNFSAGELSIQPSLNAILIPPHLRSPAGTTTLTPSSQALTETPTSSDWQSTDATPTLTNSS
pIC50: −log10 of the molar value.
Binary classification by pIC50, with 9 as an inclusive lower bound for Y; all other cases are N.

Reported pIC50 at or above 9? `CN1CCC(Nc2nccc(C(=O)Nc3cnccc3-c3ccccc3F)n2)CC1`
N

Try this compound next: `O=C(Nc1cnccc1-c1ccccc1)c1ccnc(Nc2ccc(Cl)cc2Cl)n1`
N

Try this compound next: `O=C(Nc1cnccc1OCC(F)(F)F)c1ccnc(NC2CCCCC2)n1`
Y

Try this compound next: O=C(Nc1cncnc1)c1ccnc(NCC2CC2c2cccc(F)c2)n1 (stereo not drawn)
N

Try this compound next: `O=C(Nc1cnc(F)cc1N1CCOCC1)c1ccnc(Nc2ccc(Cl)cc2F)n1`
Y

Try this compound next: `O=C(Nc1cncc(-c2ccccc2F)c1)c1ccnc(Nc2cccc(OC(F)(F)F)c2)n1`
N

Try this compound next: `O=C(Nc1cnccc1OCC(F)(F)F)c1ccnc(Nc2ccc(C(F)(F)F)cn2)n1`
N

Try this compound next: `O=C(Nc1cnc(F)cc1N1CCOCC1)c1ccnc(Nc2ccc(Cl)cc2)n1`
Y

====

# tgt: GSK3β (Homo sapiens, UniProt P49841)
# Sequence (P49841 whole entry, species assumed): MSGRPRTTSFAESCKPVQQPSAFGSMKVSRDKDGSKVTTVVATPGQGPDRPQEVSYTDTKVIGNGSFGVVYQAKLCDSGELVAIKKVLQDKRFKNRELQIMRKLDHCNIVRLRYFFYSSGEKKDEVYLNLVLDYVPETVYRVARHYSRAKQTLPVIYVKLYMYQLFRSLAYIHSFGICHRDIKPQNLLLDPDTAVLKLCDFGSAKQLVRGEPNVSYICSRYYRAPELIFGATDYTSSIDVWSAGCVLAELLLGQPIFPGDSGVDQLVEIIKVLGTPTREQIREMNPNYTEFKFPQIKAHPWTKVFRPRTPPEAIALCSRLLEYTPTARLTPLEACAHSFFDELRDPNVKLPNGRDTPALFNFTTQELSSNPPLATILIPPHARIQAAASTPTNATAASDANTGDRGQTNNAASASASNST
# assayComment: GSK3β kinase assay (Caliper LabChip3000 mobility shift, fluoresceinated peptide substrate)
# Format: biochemical
# details: 250 pM enzyme, 20 uM ATP, 1.5 uM peptide, 20 hours room temperature; first value of cell GSK3β/GSK3α; read-out: GSK3β (nM), IC50
Criterion: IC50 strictly less than 4 nM. Met: Criterion met. Not met: Criterion not met.

Quick check: does `O=C(Nc1cnccc1-c1ccccc1)c1ccnc(Nc2ccc(Cl)cc2)n1` have IC50 under 4 nM?
Criterion met

Try this molecule next: `O=C(Nc1cncc(-c2ccccc2F)c1)c1ccnc(Nc2ccc(F)nc2)n1`
Criterion not met

Try this molecule next: `O=C(Nc1cnccc1C1CCOCC1)c1ccnc(Nc2ccc(OC(F)F)nc2)n1`
Criterion met

Try this molecule next: `O=C(Nc1cnccc1-c1ccc(F)cc1F)c1ccnc(Nc2cccnn2)n1`
Criterion not met

====

# tgt: GSK3β (Homo sapiens, UniProt P49841)
# assayComment: GSK3β kinase assay (Caliper LabChip3000 mobility shift, fluoresceinated peptide substrate)
# Assay type: biochemical
# details: 250 pM enzyme, 20 uM ATP, 1.5 uM peptide, 20 hours room temperature; first value of cell GSK3β/GSK3α; read-out: GSK3β (nM), IC50
Criterion: IC50 strictly less than 1 nM. Met: True. Not met: False.

Quick check: does `O=C(Nc1cnccc1OCC(F)(F)F)c1ccnc(Nc2cccc3ccccc23)n1` have IC50 under 1 nM?
False

Try this compound next: `O=C(Nc1cncnc1OCC(F)(F)F)c1ccnc(Nc2ccc(Cl)cc2F)n1`
False

Try this compound next: `Cc1ccc(NC(=O)c2ccnc(N)n2)cn1`
False

Try this compound next: `O=C(Nc1cnccc1-c1ccc(F)cc1F)c1ccnc(Nc2ccccc2)n1`
True

Try this compound next: `O=C(Nc1cnccc1-c1ccccc1)c1ccnc(Nc2ccc(OC(F)F)cc2Cl)n1`
False

Try this compound next: `CC(C)(C)[C@H]1CC[C@@H](Nc2nccc(C(=O)Nc3cnccc3OCC(F)(F)F)n2)CC1`
False

Try this compound next: `O=C(Nc1cnccc1-c1ccccc1)c1ccnc(Nc2ccc(Cl)cc2F)n1`
True

Try this compound next: `O=C(Nc1cnccc1-c1ccc(F)cc1F)c1ccnc(Nc2ccc3ccccc3c2)n1`
True

Try this compound next: `O=C(Nc1cnc(F)cc1OCC(F)(F)F)c1ccnc(Nc2ccc(Cl)cc2)n1`
False

Try this compound next: `O=C(Nc1cncc(-c2ccccc2F)c1)c1ccnc(NCC2CC2)n1`
False

Try this compound next: `O=C(Nc1cnccc1-c1ccccc1)c1ccnc(Nc2ccc(C(F)(F)F)cc2Cl)n1`
False

Try this compound next: `Cc1ccc(Nc2nccc(C(=O)Nc3cnccc3OCC(F)(F)F)n2)cc1`
True

Try this compound next: `O=C(Nc1cnccc1-c1ccc(F)cc1)c1ccnc(NC2CCCC2)n1`
True

Try this compound next: `O=C(Nc1cnc(F)cc1N1CCOCC1)c1ccnc(Nc2ccc(Cl)c(F)c2)n1`
True

Try this compound next: `O=C(Nc1cncnc1OCC(F)(F)F)c1ccnc(Nc2ccc(OC(F)F)nc2)n1`
True

Try this compound next: `CC(C)Nc1nccc(C(=O)Nc2cnc(F)cc2OCC(F)(F)F)n1`
False

Try this compound next: `O=C(Nc1cncnc1OCC(F)(F)F)c1ccnc(NCC2CC2)n1`
False

====

# tgt: GSK3β (Homo sapiens, UniProt P49841)
# assayComment: GSK3β kinase assay (Caliper LabChip3000 mobility shift, fluoresceinated peptide substrate)
# Assay type: biochemical
# details: 250 pM enzyme, 20 uM ATP, 1.5 uM peptide, 20 hours room temperature; first value of cell GSK3β/GSK3α; read-out: GSK3β (nM), IC50
readout: log10(IC50) (log10 of the value in nM)
All values: base-10 log of IC50 in nM.

Consider the molecule `O=C(Nc1cncnc1)c1ccnc(Nc2cccc(-c3ccccc3)c2)n1` and give its measured log10(IC50).
0.64

Try this molecule next: `O=C(Nc1cnc(F)cc1N1CCOCC1)c1ccnc(Nc2cccc(OC(F)(F)F)c2)n1`
-0.05

Try this molecule next: `O=C(Nc1cnccc1OCC(F)(F)F)c1ccnc(Nc2ccccc2)n1`
-0.60

Try this molecule next: `O=C(Nc1cnc(F)cc1N1CCC(F)(F)CC1)c1ccnc(Nc2ccc(Cl)cc2)n1`
-0.17

Try this molecule next: `O=C(Nc1cncc(-c2ccccc2F)c1)c1ccnc(Nc2cccc(C(F)(F)F)c2)n1`
0.77

Try this molecule next: `O=C(Nc1cnccc1OCC(F)(F)F)c1ccnc(Nc2ccc(Cl)cc2)n1`
-0.60

Try this molecule next: `O=C(Nc1cnccc1-c1ccccc1)c1ccnc(Nc2cnns2)n1`
2.00

Try this molecule next: `O=C(Nc1cnccc1OCC(F)(F)F)c1ccnc(Nc2ccc(F)cc2)n1`
-0.59

Try this molecule next: `O=C(Nc1cnccc1-c1ccc(F)cc1)c1ccnc(Nc2ccccn2)n1`
1.34

Try this molecule next: `O=C(Nc1cnccc1OCC(F)(F)F)c1ccnc(Nc2ccc3cnccc3c2)n1`
-0.96

Try this molecule next: `O=C(Nc1cnccc1OCC(F)(F)F)c1ccnc(Nc2ccc(C(F)(F)F)nc2)n1`
-0.70

Try this molecule next: `O=C(Nc1cnccc1-c1ccccc1F)c1ccnc(Nc2ccc3ccccc3c2)n1`
0.15

Try this molecule next: `O=C(Nc1cnccc1OCC(F)(F)F)c1ccnc(NCc2cccc(C(F)(F)F)c2)n1`
0.80

Try this molecule next: `O=C(Nc1cnccc1OCC(F)(F)F)c1ccnc(NC2CCC2)n1`
-0.47

Try this molecule next: `COc1ccc(Nc2nccc(C(=O)Nc3cnccc3-c3ccccc3)n2)cc1`
-0.19

Try this molecule next: `O=C(Nc1cnccc1-c1ccc(F)cc1)c1ccnc(Nc2ccc(Cl)cc2)n1`
-0.30

Try this molecule next: `O=C(Nc1cnccc1-c1ccccc1)c1ccnc(NC2CCOCC2)n1`
0.41

Try this molecule next: `CS(=O)(=O)c1ccc(Nc2nccc(C(=O)Nc3cnccc3-c3ccccc3)n2)cc1`
-0.57

Try this molecule next: `CN1CCC(Nc2nccc(C(=O)Nc3cnccc3-c3ccccc3)n2)CC1`
1.96

====

# tgt: GSK3β (Homo sapiens, UniProt P49841)
# assayComment: GSK3β kinase assay (Caliper LabChip3000 mobility shift, fluoresceinated peptide substrate)
# Format: biochemical
# details: 250 pM enzyme, 20 uM ATP, 1.5 uM peptide, 20 hours room temperature; first value of cell GSK3β/GSK3α; read-out: GSK3β (nM), IC50
Classification by IC50 | ranges: band A = under 0.4 nM, band B = from 0.4 nM up to 3 nM, band C = 3 nM and over

Input `N#Cc1ccc(Nc2nccc(C(=O)Nc3cnccc3-c3ccc(F)cc3)n2)cc1` ; output its category
band A

Try this molecule next: `Cc1cc(C#N)ccc1Nc1nccc(C(=O)Nc2cnccc2-c2ccccc2)n1`
band B

Try this molecule next: `O=C(Nc1cnccc1OCC(F)(F)F)c1ccnc(Nc2ccc(C(F)(F)F)cn2)n1`
band B

Try this molecule next: `Cn1cnc(Nc2nccc(C(=O)Nc3cnccc3-c3ccccc3)n2)c1`
band C

Try this molecule next: `O=C(Nc1cnccc1-c1ccccc1)c1ccnc(Nc2cc(F)c(Cl)cc2F)n1`
band B

Try this molecule next: `N#Cc1ccc(Nc2nccc(C(=O)Nc3cnccc3OCC(F)(F)F)n2)cc1`
band A

Try this molecule next: `O=C(Nc1cnccc1OCC(F)(F)F)c1ccnc(NCc2ccccc2)n1`
band B

Try this molecule next: `O=C(Nc1cnccc1-c1ccccc1)c1ccnc(Nc2ccccn2)n1`
band C

Try this molecule next: `Cc1cc(Nc2nccc(C(=O)Nc3cnccc3-c3ccccc3)n2)ccc1F`
band B

====

A set of molecules tested on GSK3α (Homo sapiens, UniProt P49840), with measured pIC50:
Formally, pIC50 is defined as -log10 of the concentration c, with c in mol/L.

Consider the molecule `O=C(Nc1cnccc1-c1ccccc1)c1ccnc(Nc2ccc(C(F)(F)F)cc2)n1` and give its measured pIC50.
8.92

Try this molecule next: `O=C(Nc1cnccc1-c1ccccc1)c1ccnc(Nc2ccc(F)nc2)n1`
9.40

Try this molecule next: `O=C(Nc1cncnc1)c1ccnc(Nc2cccc(-c3ccc(Cl)cc3)c2)n1`
8.74

Try this molecule next: CC(C)C(C)Nc1nccc(C(=O)Nc2cnccc2OCC(F)(F)F)n1 (centres unmarked)
9.08

Try this molecule next: `N#Cc1ccc(Nc2nccc(C(=O)Nc3cnccc3-c3ccccc3)n2)c(Cl)c1`
8.80
